System: Caco-2
Assay: Decrease in the trans-epithelial electrical resistance(TEER) in Caco-2 cell monolayers
Type: functional, cell-based
Details: Homo sapiens
pEC50: −log10 of the molar value.
Here the recorded pEC50 is given for each entry.

CCCCCCCCCCCCCCCCOC(CNC(C)=O)COP(=O)([O-])OCC[N+](C)(C)C (stereo not drawn) ... 4.15
CCCCCCCCCCCCCCCCOC(CNC(=O)CCCCCCCCCCC)COP(=O)([O-])OCC[N+](C)(C)C (stereo not drawn) ... < 3.30

As a next step, examine the compound that follows.
Entry CCCCCCCCCCCCCCCCCC(=O)NCC(COP(=O)([O-])OCC[N+](C)(C)C)OCCCCCCCC (stereo not drawn) ; pEC50 = < 2.30

====

System: Caco-2
Assay: Decrease in the trans-epithelial electrical resistance(TEER) in Caco-2 cell monolayers
Type: functional, cell-based
Conditions: Homo sapiens
REPORTED_PROPERTY: log10 of EC50 (log10 of the value in µM)
Please be aware that the numbers have been log10-transformed from EC50 in µM.

CCCCCCCCCCCCOC(CNC(=O)CCCCCCCCC)COP(=O)([O-])OCC[N+](C)(C)C (centres undefined) ... 3.02

Entry CCCCCCCCCCCCCC(=O)NCC(COP(=O)([O-])OCC[N+](C)(C)C)OCC (centres undefined) ; log10 of EC50 = 1.90

Entry CCCCCCCCCCCCOC(CNC(C)=O)COP(=O)([O-])OCC[N+](C)(C)C (centres undefined) ; log10 of EC50 = 2.89

Entry CCCCCCCCCC(=O)NCC(COP(=O)([O-])OCC[N+](C)(C)C)OCCCCCC (centres undefined) ; log10 of EC50 = 2.62

Entry CCCCCCCCCCCC(=O)NCC(COP(=O)([O-])OCC[N+](C)(C)C)OCCCCCC (centres undefined) ; log10 of EC50 = 2.28

====

Here the recorded Potency index is given for each entry.
Assay: Concentration to decrease mitochondrial dehydrogenase vs concentration to decrease TEER (IC50/EC50)
Assay type: functional
Write the number on its own, no unit after it.

CCCCCCCCCCCCOC(CNC(=O)CCCCCCCCC)COP(=O)([O-])OCC[N+](C)(C)C (stereo not drawn) ... 1.92
CCCCCCCCCCCCCCCCCCOC(CNC(C)=O)COP(=O)([O-])OCC[N+](C)(C)C (stereo not drawn) ... 1.11

Entry CCCCCCCCCCCCCCCCOC(CNC(C)=O)COP(=O)([O-])OCC[N+](C)(C)C (stereo not drawn) ; Potency index = 1.43

====

Here the recorded EC50 is given for each entry.
Test system: Caco-2
Test: Decrease in the trans-epithelial electrical resistance(TEER) in Caco-2 cell monolayers
Format: functional, cell-based
Details: Homo sapiens
Answer with a number only, understood to be in µM.

Please review the entries below; each comes with its answer.
CCCCCCCCCCCCCCCC(=O)NCC(COP(=O)([O-])OCC[N+](C)(C)C)OCCCC (centres undefined) ... 90
CCCCCCCCCC(=O)NCC(COP(=O)([O-])OCC[N+](C)(C)C)OCCCC (centres undefined) ... 3190
CCCCCCCCCCCCCCCCCCOC(CNC(C)=O)COP(=O)([O-])OCC[N+](C)(C)C (centres undefined) ... 90
CCCCCCCCCCCCCCCC(=O)NCC(COP(=O)([O-])OCC[N+](C)(C)C)OCCCCCC (centres undefined) ... 520

Entry CCCCCCCCCCCCCCCCOC(CNC(=O)CCCCC)COP(=O)([O-])OCC[N+](C)(C)C (centres undefined) ; EC50 = 300
